experiment: Single dose PK in healthy subjects (Cohorts 1, 2, S1 and S2), plasma; assay type: in vivo, human; conditions: human, plasma, intravenous, 112 mg; 3 hr; read-out: Plasma concentration, Minimum
parameter: concentration at 3 h (ng/mL)
State the answer as a number, implicitly in ng/mL.

Tell me the measured concentration at 3 h of COC(=O)N1CCC[C@H](NS(C)(=O)=O)[C@@H]1CO[C@H]1CC[C@@H](c2ccccc2)CC1 [Compound A] , please.
171

----------
experiment: CSF PK in healthy subjects (Cohort 4); format: in vivo; conditions: human, CSF; 112 mg single 9-hour IV infusion, 6 hours after the start of infusion, healthy adults Cohort 4; read-out: mean ratio CSF/plasma concentration
parameter: Kp at 6 h

Tell me the measured Kp at 6 h of COC(=O)N1CCC[C@H](NS(C)(=O)=O)[C@@H]1CO[C@H]1CC[C@@H](c2ccccc2)CC1 [Compound A] , please.
~0.028

----------
assay: Single dose PK in healthy subjects (Cohorts 1, 2, S1 and S2), plasma; format: in vivo, human; details: human, plasma, intravenous, 180 mg; 0.5 hr; read-out: Plasma concentration, Q1
parameter: concentration at 0.5 hr (ng/mL)
State the answer as a number, implicitly in ng/mL.

Tell me the measured concentration at 0.5 hr of COC(=O)N1CCC[C@H](NS(C)(=O)=O)[C@@H]1CO[C@H]1CC[C@@H](c2ccccc2)CC1 , please.
163

----------
experiment: Single dose PK in healthy subjects (Cohorts 1, 2, S1 and S2), plasma; type: in vivo, human; conditions: human, plasma, iv, 240 mg, 240 mg single IV infusion, healthy subjects; read-out: Cmax Geo Mean
parameter: Cmax

Tell me the measured Cmax of COC(=O)N1CCC[C@H](NS(C)(=O)=O)[C@@H]1CO[C@H]1CC[C@@H](c2ccccc2)CC1 , please.
506 ng/mL

----------
experiment: Single dose PK in healthy subjects (Cohorts 1, 2, S1 and S2), plasma; format: in vivo, human; details: human, plasma, iv, 240 mg, 240 mg single IV infusion, healthy subjects; read-out: AUC24 Geo Mean
parameter: AUC (ng·h/mL)
State the answer as a number, implicitly in ng·h/mL.

Tell me the measured AUC of COC(=O)N1CCC[C@H](NS(C)(=O)=O)[C@@H]1CO[C@H]1CC[C@@H](c2ccccc2)CC1 [Compound A] , please.
4540

----------
experiment: Single dose PK in healthy subjects (Cohorts 1, 2, S1 and S2), plasma; assay type: in vivo, human; conditions: human, plasma, iv, 28 mg, 28 mg single IV infusion, healthy subjects; read-out: Cmax Mean
parameter: Cmax (ng/mL)
State the answer as a number, implicitly in ng/mL.

Tell me the measured Cmax of COC(=O)N1CCC[C@H](NS(C)(=O)=O)[C@@H]1CO[C@H]1CC[C@@H](c2ccccc2)CC1 [Compound A] , please.
58.1

----------
Assay: Plasma concentrations in healthy subjects (Cohort 4)
Assay type: in vivo
Conditions: human, intravenous, 112 mg, 0.5 hr, Median
Protocol: Pharmacokinetics: Concentrations of Compound A in plasma, and CSF, and pharmacokinetics parameters. Following a single 9-hour IV infusion of 112 mg to healthy adult subjects in Cohort 4, Compound A plasma concentration-time profile was consistent with that observed in Cohort 1. At 6 hours after the start of infusion, mean ratio CSF/plasma concentration of Compound A was estimated to be about 2.8%.
parameter: concentration at 0.5 h
Don't forget the unit after the number, please.

Tell me the measured concentration at 0.5 h of COC(=O)N1CCC[C@H](NS(C)(=O)=O)[C@@H]1CO[C@H]1CC[C@@H](c2ccccc2)CC1 , please.
116 ng/mL

----------
assay: Single dose PK in healthy subjects (Cohorts 1, 2, S1 and S2), plasma; type: in vivo, human; conditions: human, plasma, intravenous, 14 mg; 4 hr; read-out: Plasma concentration, Mean
parameter: concentration at 4 h
Don't forget the unit after the number, please.

Tell me the measured concentration at 4 h of COC(=O)N1CCC[C@H](NS(C)(=O)=O)[C@@H]1CO[C@H]1CC[C@@H](c2ccccc2)CC1 [Compound A] , please.
36.4 ng/mL

----------
assay: Single dose PK in healthy subjects (Cohorts 1, 2, S1 and S2), plasma; assay type: in vivo, human; conditions: human, plasma, intravenous, 7 mg; 6 hr; read-out: Plasma concentration, Mean
parameter: concentration at 6 h (ng/mL)
State the answer as a number, implicitly in ng/mL.

Tell me the measured concentration at 6 h of COC(=O)N1CCC[C@H](NS(C)(=O)=O)[C@@H]1CO[C@H]1CC[C@@H](c2ccccc2)CC1 , please.
12.2

----------
test: Single dose PK in healthy subjects (Cohorts 1, 2, S1 and S2), plasma; type: in vivo, human; conditions: human, plasma, intravenous, 112 mg; 4 hr; read-out: Plasma concentration, Mean
parameter: concentration at 4 h (ng/mL)
State the answer as a number, implicitly in ng/mL.

Tell me the measured concentration at 4 h of COC(=O)N1CCC[C@H](NS(C)(=O)=O)[C@@H]1CO[C@H]1CC[C@@H](c2ccccc2)CC1 , please.
224

----------
assay: Single dose PK in healthy subjects (Cohorts 1, 2, S1 and S2), plasma; type: in vivo, human; settings: human, plasma, intravenous, 7 mg; 8 hr; read-out: Plasma concentration, Q1
parameter: concentration at 8 hr (ng/mL)
State the answer as a number, implicitly in ng/mL.

Tell me the measured concentration at 8 hr of COC(=O)N1CCC[C@H](NS(C)(=O)=O)[C@@H]1CO[C@H]1CC[C@@H](c2ccccc2)CC1 [Compound A] , please.
12.8

----------
experiment: Single dose PK in healthy subjects (Cohorts 1, 2, S1 and S2), plasma; type: in vivo, human; details: human, plasma, intravenous, 112 mg; 3 hr; read-out: Plasma concentration, Q3
parameter: concentration at 3 h (ng/mL)
State the answer as a number, implicitly in ng/mL.

Tell me the measured concentration at 3 h of COC(=O)N1CCC[C@H](NS(C)(=O)=O)[C@@H]1CO[C@H]1CC[C@@H](c2ccccc2)CC1 , please.
248

----------
experiment: Single dose PK in healthy subjects (Cohorts 1, 2, S1 and S2), plasma; assay type: in vivo, human; conditions: human, plasma, iv, 240 mg, 240 mg single IV infusion; 9 hr; read-out: Plasma Concentration of Cmpd A, Maximum
parameter: concentration at 9 h (ng/mL)
State the answer as a number, implicitly in ng/mL.

Tell me the measured concentration at 9 h of COC(=O)N1CCC[C@H](NS(C)(=O)=O)[C@@H]1CO[C@H]1CC[C@@H](c2ccccc2)CC1 [Compound A] , please.
613

----------
test: Single dose PK in healthy subjects (Cohorts 1, 2, S1 and S2), plasma; format: in vivo, human; conditions: human, plasma, intravenous, 112 mg; 0.5 hr; read-out: Plasma concentration, Q1
parameter: concentration at 0.5 h (ng/mL)
State the answer as a number, implicitly in ng/mL.

Tell me the measured concentration at 0.5 h of COC(=O)N1CCC[C@H](NS(C)(=O)=O)[C@@H]1CO[C@H]1CC[C@@H](c2ccccc2)CC1 , please.
119

----------
assay: Single dose PK in healthy subjects (Cohorts 1, 2, S1 and S2), plasma; type: in vivo, human; details: human, plasma, intravenous, 134.4 mg; 6 hr; read-out: Plasma concentration, Q1
parameter: concentration at 6 h (ng/mL)
State the answer as a number, implicitly in ng/mL.

Tell me the measured concentration at 6 h of COC(=O)N1CCC[C@H](NS(C)(=O)=O)[C@@H]1CO[C@H]1CC[C@@H](c2ccccc2)CC1 , please.
206

----------
assay: Single dose PK in healthy subjects (Cohorts 1, 2, S1 and S2), plasma; type: in vivo, human; settings: human, plasma, intravenous, 7 mg; 1.5 hr After End of Infusion; read-out: Plasma concentration, Q1
parameter: concentration at 1.5 h after end of infusion (ng/mL)
State the answer as a number, implicitly in ng/mL.

Tell me the measured concentration at 1.5 h after end of infusion of COC(=O)N1CCC[C@H](NS(C)(=O)=O)[C@@H]1CO[C@H]1CC[C@@H](c2ccccc2)CC1 , please.
4.15

----------
assay: Single dose PK in healthy subjects (Cohorts 1, 2, S1 and S2), plasma; type: in vivo, human; conditions: human, plasma, iv, 112 mg, 112 mg single IV infusion, healthy subjects; read-out: CL Mean (converted)
parameter: clearance (mL/min)
State the answer as a number, implicitly in mL/min.

Tell me the measured clearance of COC(=O)N1CCC[C@H](NS(C)(=O)=O)[C@@H]1CO[C@H]1CC[C@@H](c2ccccc2)CC1 , please.
902

----------
test: Single dose PK in healthy subjects (Cohorts 1, 2, S1 and S2), plasma; format: in vivo, human; settings: human, plasma, intravenous, 180 mg; 0.5 hr; read-out: Plasma concentration, Maximum
parameter: concentration at 0.5 h (ng/mL)
State the answer as a number, implicitly in ng/mL.

Tell me the measured concentration at 0.5 h of COC(=O)N1CCC[C@H](NS(C)(=O)=O)[C@@H]1CO[C@H]1CC[C@@H](c2ccccc2)CC1 , please.
224
